system_under_test: Transient receptor potential cation channel subfamily V member 1 (Homo sapiens, UniProt Q8NER1)
Sequence (Q8NER1 whole entry): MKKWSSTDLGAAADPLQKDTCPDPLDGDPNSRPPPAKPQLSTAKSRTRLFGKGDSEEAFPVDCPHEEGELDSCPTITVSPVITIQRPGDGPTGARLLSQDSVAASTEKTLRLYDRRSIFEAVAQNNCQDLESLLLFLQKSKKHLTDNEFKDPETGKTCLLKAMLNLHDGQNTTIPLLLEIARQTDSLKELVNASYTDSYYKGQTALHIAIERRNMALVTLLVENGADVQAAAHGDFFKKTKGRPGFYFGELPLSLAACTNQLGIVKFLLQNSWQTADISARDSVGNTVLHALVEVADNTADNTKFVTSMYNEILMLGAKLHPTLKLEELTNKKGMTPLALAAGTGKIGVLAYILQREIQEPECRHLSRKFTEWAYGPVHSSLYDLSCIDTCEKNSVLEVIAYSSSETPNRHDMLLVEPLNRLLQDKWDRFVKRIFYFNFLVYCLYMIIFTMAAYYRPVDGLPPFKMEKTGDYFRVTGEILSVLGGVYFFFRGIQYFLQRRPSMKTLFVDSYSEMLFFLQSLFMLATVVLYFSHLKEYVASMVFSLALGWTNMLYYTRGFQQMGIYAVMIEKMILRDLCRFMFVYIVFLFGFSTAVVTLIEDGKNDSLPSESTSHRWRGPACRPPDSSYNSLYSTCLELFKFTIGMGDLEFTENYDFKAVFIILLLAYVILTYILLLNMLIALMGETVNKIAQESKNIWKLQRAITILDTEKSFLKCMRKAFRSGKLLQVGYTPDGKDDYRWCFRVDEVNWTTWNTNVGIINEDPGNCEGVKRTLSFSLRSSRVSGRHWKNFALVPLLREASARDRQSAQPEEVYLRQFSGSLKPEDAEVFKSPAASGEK
experimental_protocol: Antagonist activity at human TRPV1 assessed as inhibition of capsaicin-induced effect by FLIPR assay
study_conditions: read-out: Ki
Below is a list of entries, each paired with its recorded pKi value.
// field semantics: pKi = negative decimal log of concentration (mol/L)

Record excerpt, results attached:
>>> recorded_result("CC1CCN(c2nc(C(F)(F)F)ccc2CNC(=O)Nc2cccc3ncccc23)CC1")
9.15
>>> recorded_result("CC1CCN(c2nc(C(F)(F)F)ccc2CNC(=O)Nc2cccc3ccncc23)CC1")
9.40
>>> recorded_result("CC1CCN(c2nc(C(F)(F)F)ccc2CNC(=O)Nc2cccc3cnccc23)CC1")
9.70

Next, consider the following compound.
QUERY: What does the data say about its pKi? Entry: O=C(NCc1ccc(C(F)(F)F)cc1)Nc1cccc2cnccc12
RESULT: 7.74
